# Tested on: CCD 841 CoN cells
# assay-text: MTT cell growth inhibition assay, CCD 841 CoN
# Type: cell-based, human
# setup-conditions: CCD 841 CoN normal cells, 72 h
The following compounds are shown together with reported IC50 values.

line-notation | IC50
CN(CCCNc1c2ccccc2nc2cccc([N+](=O)[O-])c12)CCCNc1ccc2ncn3c4ccccc4c(=O)c1c23 | 25 nM
Cc1ccc([N+](=O)[O-])c2c(NCCCN(C)CCCNc3ccc4ncn5c6ccc(O)cc6c(=O)c3c45)c3ccccc3nc12 | 338 nM

====

# System: HCT116 cells
# assay-text: MTT cell growth inhibition assay, HCT116
# Format: cell-based, human
# setup-conditions: Homo sapiens, HCT-116, 72 h, HCT116, 72 h
measurement-type: IC90 (nM)

compound | assayed-target | op | reported-measurement
Cc1ccc([N+](=O)[O-])c2c(NCCCN(C)CCCNc3ccc4ncn5c6ccccc6c(=O)c3c45)c3ccccc3nc12 [Compound C-2053] | HCT116 cells | = | 195
Cc1ccc([N+](=O)[O-])c2c(NCCCN(C)CCCNc3ccc4ncn5c6ccc(O)cc6c(=O)c3c45)c3ccccc3nc12 [Compound C-2045] | HCT116 cells | = | 455
CN(CCCNc1c2ccccc2nc2cccc([N+](=O)[O-])c12)CCCNc1ccc2ncn3c4ccccc4c(=O)c1c23 [Compound C-2028] | HCT116 cells | ≤ | 50
O=c1c2ccccc2n2cnc3ccc(NCCCN4CCN(CCCNc5c6ccccc6nc6cccc([N+](=O)[O-])c56)CC4)c1c32 [Compound C-2041] | HCT116 cells | ≤ | 50

====

# Tested on: H460 cells
# assay-text: Annexin V/PI dual staining, H460
# Type: cell-based, human
# setup-conditions: H460, IC90 doses, 120 h
measurement-type: annexin V positive cells (early and late apoptotic) (%)

compound | assayed-target | reported-measurement
Cc1ccc([N+](=O)[O-])c2c(NCCCN(C)CCCNc3ccc4ncn5c6ccc(O)cc6c(=O)c3c45)c3ccccc3nc12 [Compound C-2045] | H460 cells | 49.4
O=c1c2ccccc2n2cnc3ccc(NCCCN4CCN(CCCNc5c6ccccc6nc6cccc([N+](=O)[O-])c56)CC4)c1c32 [Compound C-2041] | H460 cells | 35.9
CN(CCCNc1c2ccccc2nc2cccc([N+](=O)[O-])c12)CCCNc1ccc2ncn3c4ccccc4c(=O)c1c23 [Compound C-2028] | H460 cells | 48.7
Cc1ccc([N+](=O)[O-])c2c(NCCCN(C)CCCNc3ccc4ncn5c6ccccc6c(=O)c3c45)c3ccccc3nc12 [Compound C-2053] | H460 cells | 53.1
